Target: UniProt P28845
Experiment: Inhibition of 11beta-HSD1 in human liver microsomes using [3H]-cortisone as substrate assessed as formation of cortisol at 100 uM after 60 to 90 mins by radiometric analysis relative to control
Details: Microsome
measured_attribute: inhibition (%)
Just the number please, in %, no unit attached.

Answered examples (5):
{"mol": "CN(C)c1ccc(/C=C2\\CCC/C(=C\\c3ccc(N(C)C)cc3)C2=O)cc1", "system_under_test": "UniProt P28845", "measured_attribute": "inhibition", "recorded_value": 14}
{"mol": "C=CCOc1ccc(/C=C2\\CCC/C(=C\\c3ccc(OCC=C)c(OC)c3)C2=O)cc1OC", "system_under_test": "UniProt P28845", "measured_attribute": "inhibition", "recorded_value": 7}
{"mol": "C=CCOc1ccc(/C=C2\\CC/C(=C\\c3ccc(OCC=C)c(OC)c3)C2=O)cc1OC", "system_under_test": "UniProt P28845", "measured_attribute": "inhibition", "recorded_value": 13}
{"mol": "CN(C)CCCOc1ccc(/C=C2\\CC/C(=C\\c3ccc(OCCCN(C)C)cc3)C2=O)cc1", "system_under_test": "UniProt P28845", "measured_attribute": "inhibition", "recorded_value": 15}
{"mol": "O=C1/C(=C/c2ccc(O)cc2)CC/C1=C\\c1ccc(O)cc1", "system_under_test": "UniProt P28845", "measured_attribute": "inhibition", "recorded_value": 39}

I would be grateful if you could share the reported inhibition for CN(C)c1ccc(/C=C/C(=O)/C=C/c2ccc(N(C)C)cc2)cc1 .
24

Quick one: C=CCOc1ccc(/C=C2\CCC/C(=C\c3ccc(OCC=C)cc3)C2=O)cc1
18

Quick one: O=C1/C(=C/c2cccc(C(F)(F)F)c2F)CC/C1=C\c1cccc(C(F)(F)F)c1F
23

Quick one: CCOc1ccc(/C=C2\CC/C(=C\c3ccc(OCC)cc3)C2=O)cc1
14

Quick one: CN(C)c1ccc(/C=C2\CC/C(=C\c3ccc(N(C)C)cc3)C2=O)cc1
15

====

Biological target: 11-beta-hydroxysteroid dehydrogenase 1 (Homo sapiens, UniProt P28845)
Sequence (P28845 whole entry, looked up): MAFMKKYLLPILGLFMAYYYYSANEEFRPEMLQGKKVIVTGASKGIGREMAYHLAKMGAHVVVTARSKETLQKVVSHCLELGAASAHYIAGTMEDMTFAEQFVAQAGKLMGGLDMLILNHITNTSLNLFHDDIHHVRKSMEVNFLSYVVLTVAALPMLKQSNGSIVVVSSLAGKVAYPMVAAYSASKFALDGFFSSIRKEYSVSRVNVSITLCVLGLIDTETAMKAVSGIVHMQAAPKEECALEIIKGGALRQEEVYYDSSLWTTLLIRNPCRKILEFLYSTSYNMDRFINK
Experiment: Inhibition of human 11beta-HSD1 transfected in CHOP cells at 100 uM relative to control
Type: cell-based
Label 0.0 if inhibition falls below 20%; label 1.0 in every other case.

# bool: inhibition of O=C1/C(=C/c2cccc(C(F)(F)F)c2F)CC/C1=C\c1cccc(C(F)(F)F)c1F >= 20%
1.0

====

Below is a list of entries, each paired with its recorded inhibition value.
Target: 11-beta-hydroxysteroid dehydrogenase type 2 (Rattus norvegicus) (UniProt P50233)
Sequence (P50233 whole entry): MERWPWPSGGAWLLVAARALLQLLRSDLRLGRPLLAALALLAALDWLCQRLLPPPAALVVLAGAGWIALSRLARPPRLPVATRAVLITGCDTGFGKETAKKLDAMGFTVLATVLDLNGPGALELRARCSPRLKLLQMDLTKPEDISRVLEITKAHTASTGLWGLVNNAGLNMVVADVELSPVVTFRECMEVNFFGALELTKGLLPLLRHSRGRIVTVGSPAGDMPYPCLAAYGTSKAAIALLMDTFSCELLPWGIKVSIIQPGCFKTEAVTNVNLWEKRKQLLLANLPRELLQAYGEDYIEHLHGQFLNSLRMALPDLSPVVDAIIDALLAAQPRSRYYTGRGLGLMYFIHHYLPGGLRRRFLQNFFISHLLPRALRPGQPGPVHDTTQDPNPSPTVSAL
Experiment: Inhibition of 11beta-HSD2 in rat kidney microsomes using [3H]-CORT as substrate assessed as formation of 11-DHC at 100 uM after 30 mins by radiometric analysis relative to control
Conditions: Microsome
Just the number please, in %, no unit attached.

Answered examples (9):
{"compound": "O=C(/C=C/c1ccc(O)cc1)/C=C/c1ccc(O)cc1", "result_units": "%", "inhibition": 7}
{"compound": "O=C(/C=C/c1ccc(F)cc1)/C=C/c1ccc(F)cc1", "result_units": "%", "inhibition": 22}
{"compound": "O=C1/C(=C/c2ccc(OC3CCCCO3)cc2)CC/C1=C\\c1ccc(OC2CCCCO2)cc1 (stereo not given)", "result_units": "%", "inhibition": 13}
{"compound": "O=C1/C(=C/c2ccc(OC3CCCCO3)cc2)CCC/C1=C\\c1ccc(OC2CCCCO2)cc1 (stereo not given)", "result_units": "%", "inhibition": 48}
{"compound": "O=C1/C(=C/c2ccc(F)cc2)CCC/C1=C\\c1ccc(F)cc1", "result_units": "%", "inhibition": 16}
{"compound": "C=CCOc1ccc(/C=C2\\CCC/C(=C\\c3ccc(OCC=C)c(OC)c3)C2=O)cc1OC", "result_units": "%", "inhibition": 8}
{"compound": "COc1cc(/C=C2\\CCC/C(=C\\c3cc(OC)c(OC)c(OC)c3)C2=O)cc(OC)c1OC", "result_units": "%", "inhibition": 23}
{"compound": "C=CCOc1ccc(/C=C2\\CCC/C(=C\\c3ccc(OCC=C)cc3)C2=O)cc1", "result_units": "%", "inhibition": 23}
{"compound": "O=C(/C=C/c1ccc(OC2CCCCO2)cc1)/C=C/c1ccc(OC2CCCCO2)cc1 (stereo not given)", "result_units": "%", "inhibition": 24}

Let's switch to this compound now.
I would be grateful if you could share the reported inhibition for COc1cc(/C=C/C(=O)/C=C/c2ccc(OC3CCCCO3)c(OC)c2)ccc1OC1CCCCO1 (stereo not given) .
16
